Data provenance: paper PMC7213754

method.summary: Tariquidar pharmacokinetics in patients
Assay type: in vivo, human
conditions: human, plasma, intravenous, 150 mg, mean plasma concentration, 48 h, cycle 2
measured.quantity: concentration at 48 h (ng/mL)
Answers are plain numbers, in ng/mL.

Inquiry: Determine its reported concentration at 48 h: `COc1cc2c(cc1OC)CN(CCc1ccc(NC(=O)c3cc(OC)c(OC)cc3NC(=O)c3cnc4ccccc4c3)cc1)CC2`
Reply text: 69.5

====

method.summary: Tariquidar pharmacokinetics in patients
Type: in vivo, human
conditions: human, plasma, iv, 150 mg, Vdss, median, cycle 2, 150 mg i.v. over 30 min; 18 patients
measured.quantity: Vd (L)
Numbers only, in L.

Inquiry: Please report the measured Vd for `COc1cc2c(cc1OC)CN(CCc1ccc(NC(=O)c3cc(OC)c(OC)cc3NC(=O)c3cnc4ccccc4c3)cc1)CC2`
Reply text: 261
